# system tested: T1, human GPC3 on cells (human, UniProt P51654 25-563)
# T1 construct: whole, on cells; One molecule is used for both CHO-hGPC3 transfectants and GPC3+ HepG2 cells; The assay field names the cell; also called CHO-hGPC3 (clone 2B10); CHO-human GPC3
# assay comment: flow cytometry, CHO-human GPC3 cells
Collected pEC50 values appear next to each entry.
In textbook form, pEC50 equals minus log to base ten of the concentration in mol/L.

{"columns": ["binder", "pEC50"],
 "data": [
  ["46C3 (antibody, V domains shown, Chimeric human IgG1) VH: QVQLQQSGPELVKPGASVKISCKASGYTFTDYYINWVKQKPGQGLEWIGWIYPGSGNTKYNEKFKGKATLTVDTSSSTAYMQLSSLTSEDTAVYFCARGRWGQGTLVTVSA VL: DVVMTQTPLSLPVSLRDQASISCRSSQSLVHSNGNTYLHWYLQKPGQSPKLLIYKVSNRFSGVPDRFSGSGSGTDFTLKISRVEAEDLGVYFCSQSTHVPRTFGGGTKLELK", 9.34],
  ["41F1 (antibody, V domains shown, Chimeric human IgG1) VH: QVQLQQSGAELVRPGASVKLSCKALGYTFADYEIHWVKQTPVHGLEWIGAIHPGSGGTAYNQTFEGKATLTADKSSTTAYMELSSLTSEDSAVYYCTRYYSFAYWGQGTLVTVSA VL: DVLMTQTPLSLPVSLGDQASISCRSSQSLVHSNGNTYLHWYLQKPGQSPKLLIYKVSNRFSGVPDRFSGSGSGTDFTLKISRVEAEDLGVYFCSQNTHVPLTFGAGTKLELK", 9.04]
]}

Tell me the measured pEC50 of 29A10 (antibody, V domains shown, Chimeric human IgG1) VH: EVQLQQSGAELVRPGASVKLSCKALGYTFADYEIHWVKQTPVHGLEWIGAIHPGSGGTAYNQTFKGKATLTADKSSTTAYMELSSLTSEDSAVYYCTRYYSFAYWGQGTLVTVSA VL: DVVMTQTPLSLPVSLGDQASISCRSSQSLVHSNGNTYLHWYLQKPGQSPKLLIYKVSNRFSGVPDRFSGSGSGTDFTLKISRVEAEDLGVYFCSQSTHVPLTFGAGTKLEIK , please.
8.47
